// provenance: PubChem BioAssay

# Experiment notes: doxorubicin toxicity protection in MRP-1 cells – H69AR cells, CellTiter-Glo, duplicate, MRP-1 activator project, pilot screen (AID 807);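 also: compound pretreatment 18-22 h then 72 h combined with doxorubicin; 0% = doxorubicin alone and 100% = vehicle without doxorubicin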
# Run conditions: H69AR viability with doxorubicin, CellTiter-Glo luminescence; at 10 µM; active compounds read high
In this section, each of the compounds is paired with its reported viability increase.
Measurement kind: viability increase (%)

| Compound | Unit name | Data value |
| --- | --- | --- |
| Cc1ccc2c(c1)-c1c(cnn1CC(=O)NC(C)CCc1ccco1)CO2 (stereo not drawn) | % | -3.78 |
| COC(=O)C1=CNC=C(C(=O)OC)C1c1ccc(C(=O)OC)cc1 | % | -3.35 |
| CC(O)Cc1nsc(NC(=O)c2cccs2)n1 (stereo not drawn) | % | -0.55 |

----------
# Experiment notes: S. cerevisiae growth inhibition in permissive medium (OD615), pilot counter-assay for S. cerevisiae lifespan shortening project, permissive growth control (AID 705)
# Run conditions: OD615, 24 h, at 10 µM, active compounds read high

| Compound | growth inhibition / % |
| --- | --- |
| Cc1cc(C)n(-c2cc(N3CCOCC3)ncn2)n1 | -3.3 |
| COc1ccccc1NC(=O)c1ccc(S(=O)(=O)N2CCCC2)cc1 | -5.88 |
| CCCCc1nc2ccccc2n2cc3c(=O)n(C)c(=O)n(C)c3c12 | -9.65 |
| CCSc1nc(O)c(CC)c(=O)n1C(C)CC (configuration not stated) | -9.35 |
| O=C(COc1ccc(F)cc1)Nc1ccc(-n2cnnn2)cc1 | 2.42 |
| Cn1c(Cn2c(=O)sc3ccccc32)nnc1SCC(=O)Nc1ccc(F)cc1 | -6.3 |
| CCCCCn1c(=O)[nH]c2cc(C(=O)NCCN3CCOCC3)ccc2c1=O | -26.4 |
| O=[n+]1c2c(n([O-])c3c1CCCC3)CCCCC2 | -3.03 |
| CCOc1cc(CN2CCN(c3cccc(C(F)(F)F)c3)CC2)ccc1O | -9.48 |
| C(=N\c1c(-c2ccccc2)nc2n1CCS2)/c1ccccc1 | 1.59 |
| COc1cccc2cc(C(=O)OC3CCN(C)CC3)c(=O)oc12 | -7.33 |
| Cc1cccc(-n2ncc3c(NCCCO)ncnc32)c1 | -12.1 |
| Cc1cc2ncn(C3CC(=O)N(Cc4ccc(N5CCCC5=O)cc4)C3=O)c2cc1C (configuration not stated) | -7.9 |
| CCn1cc(C(=O)NCC2CCCO2)c(=O)c2cc(S(=O)(=O)N(C)C)ccc21 (configuration not stated) | -1.35 |
| CCOC(=O)c1cc2c(=O)n3ccccc3nc2n(CC(C)C)c1=NC(=O)c1ccco1 | 1.45 |
| C=CCOC(=O)COc1ccc2c(C)c(C)c(=O)oc2c1C | -18.3 |
| COc1ccc(C)cc1NC(=O)C1CCCN(S(=O)(=O)c2c(C)noc2/C=C/N(C)C)C1 (configuration not stated) | -4.98 |

----------
In this section, each of the molecules is paired with its reported growth inhibition.
# Experiment notes: S. cerevisiae growth inhibition in permissive medium (OD615), pilot counter-assay for S. cerevisiae lifespan shortening project, permissive growth control (AID 705)
# Run conditions: OD615, 24 h, at 10 µM, active compounds read high
Measurement kind: growth inhibition (%)

| Molecule | Measurement kind | Data value |
| --- | --- | --- |
| O=c1c2ccccc2nc2c3ccccc3ncn12 | growth inhibition | -15.1 |
| Cc1cc(C)c(NC(=O)Cn2cc3c(n2)CCCC3)c(C)c1 | growth inhibition | 6.13 |
| COc1ccc(OCCCC(=O)Nc2nncs2)cc1 | growth inhibition | -11.5 |
| CCCSc1nc2c(cnn2-c2ccccc2)c(=O)[nH]1 | growth inhibition | -12.6 |
| O=C(CSc1nc2c(c(=O)n1-c1ccc(F)cc1)SCC2)NCC1CCCO1 (stereo not given) | growth inhibition | -8.12 |
| CC(C)CC1NC2(C(=O)N(C)c3ccccc32)C2C(=O)N(C(C)C)C(=O)C12 (stereo not given) | growth inhibition | 4.83 |
| CCCC(=O)N=c1sc2cccc(F)c2n1C | growth inhibition | -9.43 |
| N#Cc1nc(-c2ccc(Cl)cc2)oc1NCCc1ccccn1 | growth inhibition | 1 |
| O=C(OCCN(CCOC(=O)c1ccncc1)S(=O)(=O)c1cccs1)c1ccncc1 | growth inhibition | 4.38 |
| CC1CCN(C(=O)CSCC(=O)Nc2nc(-c3cccs3)cs2)CC1 | growth inhibition | 1.36 |
| COc1ccc(N(CC(=O)Nc2cc(C)ccc2C)S(=O)(=O)c2c(C)nn(C)c2C)cc1 | growth inhibition | -7.38 |
| COc1cccc(-c2nc3n(n2)C(c2cccs2)C(C(=O)Nc2cccnc2)=C(C)N3)c1 (stereo not given) | growth inhibition | -13.1 |
| Cc1cc(C)nc(NC(=O)c2cnc3sccn3c2=O)n1 | growth inhibition | -12.5 |
| CCOC(=O)c1cccc(NC(=O)CNS(=O)(=O)c2cccs2)c1 | growth inhibition | -0.595 |
| CCOC(=O)N1CCC(NC(=O)c2cc3c(-c4ccccc4F)nn(C)c3s2)CC1 | growth inhibition | -7.38 |
| COc1ccc(C(=O)CN2C3=NCCCN3c3ccccc32)cc1OC | growth inhibition | -6.53 |
| COc1cccc(/C=N/n2cnnc2)c1OCc1ccccc1 | growth inhibition | -14.7 |
| O=c1oc2ccccc2cc1NCc1ccccc1O | growth inhibition | -12.5 |
| CC/C(=C\C(=O)c1ccncc1)Nc1ccc(O)cc1 | growth inhibition | -4.59 |
| CCOc1ccc2nc(N3CCC(C(=O)N4CCN(C5CCCCC5)CC4)CC3)sc2c1 | growth inhibition | -0.545 |
| Cc1n[nH]c(C)c1N1C(=O)c2cccc3cc(Br)cc(c23)C1=O | growth inhibition | -11.5 |
| CCCCNC(=O)c1cc2c(-c3ccc(Cl)cc3)nn(C)c2s1 | growth inhibition | 3.71 |
| CCOCCCNC(=O)Cn1cc2c(n1)CCCCC2 | growth inhibition | -3.18 |
| CN1CCN(C2=C(Cl)C(=O)N(c3cccc(Cl)c3)C2=O)CC1 | growth inhibition | -16.8 |
| CCCOc1ccc2ccccc2c1/C=N/n1cnnc1 | growth inhibition | -0.81 |
| Cc1cc(C)n2nc3nc4c(cc3c2n1)CCCC4 | growth inhibition | -8.72 |
| O=C(Nc1nc2c(s1)COc1ccccc1-2)c1cccs1 | growth inhibition | 0.91 |
| COc1ccc(-n2c(Cc3cccn3C)nnc2SCC(=O)Nc2ccccc2C)cc1 | growth inhibition | -11.6 |
| CC(=O)C1=C(C)NC(SCC(=O)c2ccc(C)cc2)=C(C#N)C1c1ccco1 (stereo not given) | growth inhibition | -5.27 |
| CCOc1cccc(-c2nnc3n2N=C(c2cc(OC)ccc2OC)CS3)c1 | growth inhibition | 16.2 |
| COC(=O)Cn1c(=O)c2c(nc3n2CC(C)CN3c2ccc(C)c(C)c2)n(C)c1=O (stereo not given) | growth inhibition | -5.87 |
| COC(=O)c1cc(=O)n(Cc2ccc3c(c2)OCO3)c(=Nc2ccccc2)s1 | growth inhibition | 4.22 |
| CCN1CCN(c2nc3c(c(=O)[nH]c(=O)n3C)n2CCSc2nc3ccccc3s2)CC1 | growth inhibition | 1.81 |
| O=C(c1ccc(Br)cc1)N1CCN(S(=O)(=O)c2ccccc2)CC1 | growth inhibition | 4.02 |
| CCCN1CC23C=CC(O2)C(C(=O)O)C3C1=O (stereo not given) | growth inhibition | -2.17 |

----------
In this section, each of the compounds is paired with its reported viability.
# Experiment notes: viability of PTEN-null HCT116 cells – cell-based, HCT116 clonal line, CellTiter-Glo, pilot screen (AID 824);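 also: 0% = 20 µM Hyamine control and 100% = vehicle cell control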
# Run conditions: HCT116 PTEN-deleted viability, 60 h, at 10 µM, active compounds read low
Inconclusive results are not listed.

| Compound | Unit name | viability |
| --- | --- | --- |
| Cc1cc(=S)n(-c2ccccc2)n1C | % | 95.4 |
| COc1cccc2cc(C(=O)Nc3cccnc3N3CCOCC3)c(=O)oc12 | % | 98.8 |
| O=C(c1ccc(CS(=O)(=O)c2ccc(Br)cc2)o1)N1CCN(C2CCCCC2)CC1 | % | 95.8 |
| COc1ccccc1-c1nc(-c2ccc(Br)cc2)no1 | % | 94.1 |
| O=C(Nc1nc(-c2ccncc2)cs1)C1COc2ccccc2O1 (stereo not given) | % | 83.9 |

----------
In this section, each of the compounds is paired with its reported viability.
# Experiment notes: viability of HCT116 without oncogenic beta-catenin – human colon tumor cells, pilot screen (AID 823);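 also: 0% = wells killed by 20 µM Hyamine and 100% = untreated DMSO cell wells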
# Run conditions: HCT116 beta-catenin knockout viability, CellTiter-Glo, 60 h; at 10 µM; active compounds read low
Results filed as inconclusive are left out.

| Compound | viability, % |
| --- | --- |
| Cc1cc(C)nc(SCc2ccccc2C#N)n1 | 98.8 |
| COc1cccc(C2C(C(=O)c3cccs3)=C(O)C(=O)N2CCCn2ccnc2)c1OC (stereo not drawn) | 89.1 |
| Cc1ccc(S(=O)(=O)Cc2ccc(C(=O)N3CCN(Cc4ccccc4)CC3)o2)cc1 | 97.3 |
